Where these numbers come from: PubChem BioAssay (EPA / NIEHS)

Read-out: CD40, CD40 (gene 958)
protocol_summary: BSK_SAg_CD40: BioMAP Diversity Plus: SAg Assay for CD40 Biomarker Activity (AID 2283088)
measurement_setup: primary human HUVEC with PBMC; actives raise or lower the signal
The source made the active and inactive calls. The calls were made as follows: active = hit-call score of the fitted dose curve at least 0.9, where 1 is the maximum; inactive = score below 0.9.
Possible outcomes: active, inactive

O=C(N[C@@H](Cc1ccccc1)[C@@H](O)C(=O)N1C[C@@H](O)[C@@H](O)C1)c1cc2cc(Cl)ccc2[nH]1
inactive
Cc1ccc(C(C)C)c(O)c1
inactive
Cc1oc(-c2ccccc2)nc1CCOc1cccc2c1ccn2CCC(=O)O
inactive
c1cc(-c2ccncc2)ccn1
inactive
CCCc1cc(=O)[nH]c(=S)[nH]1
inactive
NS(=O)(=O)c1cc2c(cc1Cl)NCNS2(=O)=O
inactive
CCNc1cccc(C)c1
inactive
O=c1[nH]cc(F)c(=O)[nH]1
inactive
CC(CO)OC(C)CO (stereo unspecified) (tested in a mixture with another compound)
inactive
COc1ccc(S(=O)(=O)N2C(=O)[C@@](c3ccccc3OC)(N3C[C@H](O)C[C@H]3C(=O)N(C)C)c3cc(Cl)ccc32)c(OC)c1
active
CCCCCCOCCO
inactive
C=CCOC(=O)c1ccccc1C(=O)OCC=C
inactive
Cc1ccc(C)c(O)c1C
inactive
Cc1cccc(Nc2cc(Cl)nc(SCC(=O)O)n2)c1C
inactive
CCCCCCCCCCCCCCCC
inactive
NC(=O)Cn1c(=O)cc(CCN2CCN(c3nccc4sccc34)CC2)c2ccc(F)cc21
inactive
CCCCCCCCCCO
inactive
CC1(C)NC(=O)NC1=O
inactive
CC(=O)OC/C=C(\C)CCC=C(C)C
inactive
Cc1ccc2ncccc2c1
inactive
Cc1nc(-c2ccc3c(c2)CCN(CCC2CCC(NC(=O)/C=C/c4ccc(F)cc4)CC2)CC3)no1 (stereo unspecified)
active
FC(F)(F)C(F)(F)C(F)(F)C(F)(F)C(F)(F)C(F)(F)CCI
inactive
CCCCc1ccc2c(n1)[C@@H](c1ccc(OC)cc1C[C@H](C)C(=O)O)[C@H](C(=O)O)[C@H]2c1ccc2c(c1)OCO2
inactive
CN1CCCC1=O
inactive
CC=Cc1ccc(O)c(OC)c1
inactive
Oc1ccc2ccccc2c1N=Nc1ccccc1
inactive
